assay: recombinant barcode read abundance after kanamycin selection (control-corrected) (log10(CPM+1)); higher = more efficient recombination; sequences stand for … in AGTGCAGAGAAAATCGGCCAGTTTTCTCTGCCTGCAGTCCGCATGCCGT…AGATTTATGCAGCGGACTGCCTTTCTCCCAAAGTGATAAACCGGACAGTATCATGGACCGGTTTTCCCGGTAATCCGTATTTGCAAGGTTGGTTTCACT; site = the 11-nt target
Each record here notes measured recombinant barcode read abundance (log10).
metric: recombinant barcode read abundance (log10)

> print(dat)
                         biopolymersequence  resultnumber
1  ATTACTTCTTGGGTTCTAACCTGTTGCTT (site GAGTTCCCTGG)         0.406
2  TTCAAGACTTGGGTTCTAACCTGTTGCCT (site TTCAAGACTAG)         0.681
3  GAGATATCTTGGGTTCTAACCTGTTGCCT (site GAGAGATCTAG)         0.217
4  TCGGGGTCTTGGGTTCTAACCTGTTGCCT (site CCGGGGTCTAG)         0.543
5  TAGGTACCTTGGGTTCTAACCTGTTGCAT (site TAGGTACCTAT)          1.98

###

test: recombinant UMI read abundance after kanamycin selection (control-corrected) (log10(CPM+1)); higher = more efficient recombination; extreme values may be limits of the assay; sequences stand for … in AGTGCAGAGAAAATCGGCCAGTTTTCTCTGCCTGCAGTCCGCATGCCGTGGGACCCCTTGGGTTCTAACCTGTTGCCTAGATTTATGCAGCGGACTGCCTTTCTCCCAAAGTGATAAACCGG…AGGTTGGTTTCACT; site = the 11-nt donor
metric: recombinant UMI read abundance (log10)

> print(dat)
                         biopolymersequence                                  metric  resultnumber
1  CGGAAATCATGGACCGGTTTTCCCGGTAATCCGTATTTGCT (site CGGATATCTAG)  recombinant UMI read abundance (log10)             0
2  TAGCTAGCATGGACCGGTTTTCCCGGTAATCCGTATTTGAT (site TAGCTAGCTTT)  recombinant UMI read abundance (log10)        0.0212
3  AAGAAGCCATGGACCGGTTTTCCCGGTAATCCGTATTTGAC (site AAGAAGCCTGT)  recombinant UMI read abundance (log10)             0
4  GTCTTCCCATGGACCGGTTTTCCCGGTAATCCGTATTTGCA (site GTCTTCCCTTG)  recombinant UMI read abundance (log10)             0
5  TGAAAGGCATGGACCGGTTTTCCCGGTAATCCGTATTTGCT (site CGAAAGGCTAG)  recombinant UMI read abundance (log10)         0.708
6  AGGAAGACATGGACCGGTTTTCCCGGTAATCCGTATTTGAC (site AGGAAGACTGT)  recombinant UMI read abundance (log10)          2.64
7  CTAACCGCATGGACCGGTTTTCCCGGTAATCCGTATTTGTT (site CTAACCGCTAA)  recombinant UMI read abundance (log10)           1.6
8  CCAGGTACATGGACCGGTTTTCCCGGTAATCCGTATTTGAT (site CCAGGTTCTAT)  recombinant UMI read abundance (log10)         0.478
9  TGAGTAGCATGGACCGGTTTTCCCGGTAATCCGTATTTGTA (site TGAGTAGCTTA)  recombinant UMI read abundance (log10)          2.48
